- Test system: methicillin-resistant Staphylococcus aureus (MRSA)
- test_details: Determination of MIC values (BHI broth, 96 well microtiter plate)
- Format: cell-based
- setup_conditions: Staphylococcus aureus, MRSA; BHI broth, overnight 37° C.; read-out: MIC MRSA
parameter_measured: MIC

Some solved cases for reference:
INSERT INTO measurements (molecule, reading) VALUES
  ('Clc1ccc2nc(-c3c[nH]c4ccc(OCc5ccccc5)cc34)ccc2c1 [Example 289]', '< 7 µg/mL'),
  ('COc1cc2[nH]cc(-c3ccc4cc(Cl)ccc4n3)c2cc1OC [Example 206]', '> 25 µg/mL'),
  ('Cn1cc(-c2ccc3cc(Cl)ccc3n2)c2cc(C#N)ccc21 [Example 218]', '< 7 µg/mL');

What does the record list as MIC for Cn1cc(-c2cc(C(=O)NCc3cccc(CN)c3)c3cc(I)ccc3n2)c2cc(Cl)ccc21 [Example 225] ?
< 7 µg/mL

What does the record list as MIC for NCCNC(=O)c1cc(-c2c[nH]c3ccc(Br)cc23)nc2c(Br)cccc12 [Example 315] ?
< 7 µg/mL
